Each entry below carries its recorded melting point.

compound: CCC(=O)CNC(=O)CCl
recorded.endpoint: melting point
observed.value: 81 to 83 °C

compound: C/C(N)=C\C#N
recorded.endpoint: melting point
observed.value: 4 to 6 °C

compound: O=C(NCCO)c1ccc(Br)cn1
recorded.endpoint: melting point
observed.value: 98 to 100 °C

compound: CC(C)(C)OC(=O)NC(C(=O)O)c1cccc(Cl)c1 (stereo not drawn)
recorded.endpoint: melting point
observed.value: 128 to 130 °C

compound: OC1C=C(c2ccc(Cl)cc2)CC1 (stereo not drawn)
recorded.endpoint: melting point
observed.value: 89 to 91 °C

In: I would be grateful if you could share the reported melting point for "Cn1c(S)nnc1COc1ccc(Cl)cc1" .
Out: 118 to 120 °C

In: I would be grateful if you could share the reported melting point for "COC(=O)c1occc1CC#N" .
Out: 62 to 64 °C

In: I would be grateful if you could share the reported melting point for "O=Cc1cnn2cccnc12" .
Out: 149 to 151 °C

In: I would be grateful if you could share the reported melting point for NCC(O)Cc1ccccc1 (stereo not drawn) .
Out: 67 to 69 °C

In: I would be grateful if you could share the reported melting point for "Cc1cc(Br)cc2cc(C#N)oc12" .
Out: 139 to 141 °C

In: I would be grateful if you could share the reported melting point for "Cc1ccc(C(C)C)cc1OCC(=O)O" .
Out: 153 to 155 °C

In: I would be grateful if you could share the reported melting point for "CNc1ccc(Cl)nn1" .
Out: 194 to 196 °C

In: I would be grateful if you could share the reported melting point for "CSc1nc(-c2ccccc2)c[nH]1" .
Out: 130 to 132 °C

In: I would be grateful if you could share the reported melting point for "O=C(O)c1ccc(Cl)c(S(=O)(=O)N2CCOCC2)c1" .
Out: 176 to 178 °C

In: I would be grateful if you could share the reported melting point for "NNc1ccc(S(=O)(=O)C(F)(F)F)cc1" .
Out: 93 to 95 °C

In: I would be grateful if you could share the reported melting point for "Nc1ccccc1CN1CCSCC1" .
Out: 72 to 74 °C

In: I would be grateful if you could share the reported melting point for "COC(=O)c1ccc(-c2nc(C)cs2)cc1" .
Out: 81 to 83 °C

In: I would be grateful if you could share the reported melting point for "CCCc1cc(=O)c2cc(Oc3ccccc3)ccc2[nH]1" .
Out: 207 to 209 °C

In: I would be grateful if you could share the reported melting point for CC(c1nnc(S)n1-c1ccc(F)cc1)N1CCCCC1 (stereo not drawn) .
Out: 115 to 117 °C

In: I would be grateful if you could share the reported melting point for "Cn1ccnc(N)c1=O" .
Out: 162 to 164 °C

In: I would be grateful if you could share the reported melting point for "N#CCCOc1ccc(Br)cc1" .
Out: 76 to 78 °C
